target_of_assay: human opioid κ receptor (Homo sapiens)
Sequence (P41145 whole entry): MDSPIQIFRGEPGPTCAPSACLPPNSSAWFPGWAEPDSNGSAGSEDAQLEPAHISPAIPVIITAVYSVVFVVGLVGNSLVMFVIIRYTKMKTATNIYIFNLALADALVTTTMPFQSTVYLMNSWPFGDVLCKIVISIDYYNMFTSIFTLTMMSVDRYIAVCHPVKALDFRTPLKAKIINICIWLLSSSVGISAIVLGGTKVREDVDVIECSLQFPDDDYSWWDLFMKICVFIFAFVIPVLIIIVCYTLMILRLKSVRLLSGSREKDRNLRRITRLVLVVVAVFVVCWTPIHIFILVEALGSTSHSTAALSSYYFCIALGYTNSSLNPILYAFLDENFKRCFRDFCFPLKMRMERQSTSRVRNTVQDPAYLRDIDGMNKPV
method: Opioid receptor function test (agonist activity, Lance Ultra cAMP kit), κ receptor
quantity_measured: EC50

• Cc1c2c(nn1C1CCCCC1)C[C@]13CCN(CC4CC4)[C@H](Cc4ccc(O)cc41)[C@]3(O)C2 = 44 nM
• Cc1nn(-c2ccncc2)c2c1C[C@@]1(O)[C@H]3Cc4ccc(O)cc4[C@@]1(CCN3CC1CC1)C2 = 58 nM
• Cc1c2c(nn1C1CCN(C)CC1)C[C@]13CCN(CC4CC4)[C@H](Cc4ccc(O)cc41)[C@]3(O)C2 = 16 nM
• Cc1c2c(nn1C1CC1)C[C@]13CCN(CC4CC4)[C@H](Cc4ccc(O)cc41)[C@]3(O)C2 = 50 nM
• Cc1c2c(nn1C1CCSCC1)C[C@]13CCN(CC4CC4)[C@H](Cc4ccc(O)cc41)[C@]3(O)C2 = 8.1 nM
• Cc1nn(-c2ccccc2)c2c1C[C@@]1(O)[C@H]3Cc4ccc(O)cc4[C@@]1(CCN3C)C2 = 1030 nM
• Cc1nn(C2CCN(C)CC2)c2c1C[C@@]1(O)[C@H]3Cc4ccc(O)cc4[C@@]1(CCN3CC1CC1)C2 = 15 nM
• Cc1c2c(nn1C(C)C)C[C@]13CCN(CC4CC4)[C@H](Cc4ccc(O)cc41)[C@]3(O)C2 = 13 nM

###

Each item that follows carries a reported EC50.
target_of_assay: UniProt P41145
method: Opioid receptor function test (agonist activity, Lance Ultra cAMP kit), κ receptor
quantity_measured: EC50 (nM)

* Cc1c2c(nn1C(C)(C)C)C[C@]13CCN(CC4CC4)[C@H](Cc4ccc(O)cc41)[C@]3(O)C2 [Compound 24] | 17
* Cc1c2c(nn1-c1ccccc1)C[C@]13CCN(CC4CC4)[C@H](Cc4ccc(O)cc41)[C@]3(O)C2 [Compound 20] | 8.7
* Cc1c2c(nn1C1CCCC1)C[C@]13CCN(CC4CC4)[C@H](Cc4ccc(O)cc41)[C@]3(O)C2 [Compound 87] | 59
* Cc1c2c(nn1C1CCC1)C[C@]13CCN(CC4CC4)[C@H](Cc4ccc(O)cc41)[C@]3(O)C2 [Compound 85] | 17

// data source = patent US20230141198A1
